protocol.summary: Pharmacokinetic parameters of MF-766 in mice
test.parameters: female, C57/B6, mouse, in vivo, po, 100 mg/kg
readout.label: AUC(0-t) (µM·h)
One number for each entry, in µM·h.

Exercise: Write down AUC(0-t) measured for item "O=C(O)c1ccc(C2(NC(=O)c3cccc4ccn(Cc5ccc(C(F)(F)F)cc5)c34)CC2)cc1"
Solution: 255

###

protocol.summary: Pharmacokinetic parameters of MF-766 in mice
test.parameters: female, C57/B6, mouse, in vivo, po, 30 mg/kg
readout.label: Cmax (µM)
Answers are plain numbers, in µM.

Exercise: Write down Cmax measured for item O=C(O)c1ccc(C2(NC(=O)c3cccc4ccn(Cc5ccc(C(F)(F)F)cc5)c34)CC2)cc1 [MF-766]
Solution: 15
